# system name: α4β7 (Homo sapiens, UniProt P13612+P26010)
# Sequence (P13612 34-1032): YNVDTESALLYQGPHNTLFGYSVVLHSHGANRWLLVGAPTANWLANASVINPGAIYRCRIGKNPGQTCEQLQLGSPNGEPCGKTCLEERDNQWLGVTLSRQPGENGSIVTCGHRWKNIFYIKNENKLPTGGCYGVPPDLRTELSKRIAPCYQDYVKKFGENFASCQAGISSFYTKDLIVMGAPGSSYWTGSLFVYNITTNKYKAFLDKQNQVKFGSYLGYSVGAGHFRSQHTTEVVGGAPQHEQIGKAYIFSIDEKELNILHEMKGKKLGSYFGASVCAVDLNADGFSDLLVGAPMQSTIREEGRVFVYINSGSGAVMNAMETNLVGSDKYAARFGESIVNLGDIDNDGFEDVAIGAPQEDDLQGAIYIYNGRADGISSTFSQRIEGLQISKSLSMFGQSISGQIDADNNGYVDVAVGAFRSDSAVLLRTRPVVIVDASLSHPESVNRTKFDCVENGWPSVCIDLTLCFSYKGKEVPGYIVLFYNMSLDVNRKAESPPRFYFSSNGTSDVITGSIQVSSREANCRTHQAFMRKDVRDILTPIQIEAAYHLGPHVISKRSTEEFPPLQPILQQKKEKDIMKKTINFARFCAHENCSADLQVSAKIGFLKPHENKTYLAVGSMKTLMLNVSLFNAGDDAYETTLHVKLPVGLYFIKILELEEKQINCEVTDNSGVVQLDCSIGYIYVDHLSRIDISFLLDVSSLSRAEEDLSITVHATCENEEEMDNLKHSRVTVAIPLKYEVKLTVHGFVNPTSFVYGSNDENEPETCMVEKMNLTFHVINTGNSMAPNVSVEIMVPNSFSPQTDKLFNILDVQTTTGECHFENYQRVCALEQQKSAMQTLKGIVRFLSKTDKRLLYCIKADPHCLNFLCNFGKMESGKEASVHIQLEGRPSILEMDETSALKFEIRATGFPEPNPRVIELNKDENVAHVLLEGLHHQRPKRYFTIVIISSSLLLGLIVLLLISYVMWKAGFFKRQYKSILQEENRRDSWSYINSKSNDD
# Sequence (P26010 20-798): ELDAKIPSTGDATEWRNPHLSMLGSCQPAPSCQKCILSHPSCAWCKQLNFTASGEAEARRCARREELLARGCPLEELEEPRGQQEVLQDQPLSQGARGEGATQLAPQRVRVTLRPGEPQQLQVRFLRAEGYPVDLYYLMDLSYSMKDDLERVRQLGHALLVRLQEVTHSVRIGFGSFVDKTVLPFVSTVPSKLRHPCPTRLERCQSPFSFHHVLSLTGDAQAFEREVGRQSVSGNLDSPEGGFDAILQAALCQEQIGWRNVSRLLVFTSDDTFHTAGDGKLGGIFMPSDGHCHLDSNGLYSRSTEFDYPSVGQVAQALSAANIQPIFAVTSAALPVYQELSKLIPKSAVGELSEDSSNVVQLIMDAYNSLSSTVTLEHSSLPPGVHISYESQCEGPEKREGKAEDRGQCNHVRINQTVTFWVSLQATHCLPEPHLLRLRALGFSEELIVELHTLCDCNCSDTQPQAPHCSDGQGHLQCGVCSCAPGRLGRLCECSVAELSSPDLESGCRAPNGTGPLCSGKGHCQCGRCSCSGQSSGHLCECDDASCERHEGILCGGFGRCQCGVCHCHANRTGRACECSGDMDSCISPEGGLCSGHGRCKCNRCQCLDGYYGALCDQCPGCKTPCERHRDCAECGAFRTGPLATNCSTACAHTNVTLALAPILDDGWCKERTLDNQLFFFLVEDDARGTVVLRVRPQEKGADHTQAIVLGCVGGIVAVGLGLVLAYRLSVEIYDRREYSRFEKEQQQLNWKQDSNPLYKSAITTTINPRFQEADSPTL
# procedure details: α4β7-MAdCAM Cell Adhesion Assay (RPMI 8866 human cells)
# Type: cell-based
# Parameters: host or cells: RPMI 8866 human B lymphoblastoid cells
# applied conditions: Table 3-B, Potency (α4β7); range classes; read-out: α4β7 cell (Hu) IC50
pIC50: −log10 of the molar value. Bridge positions count the residues as written; N and C are the ends. Square brackets hold non-standard residues; d marks the D form. Peptide text beside a SMILES is read from it. 2Nal = N[C@@H](Cc1ccc2ccccc2c1)C(=O)O; NMeR = CN[C@@H](CCCNC(=N)N)C(=O)O; Pen = CC(C)(S)[C@H](N)C(=O)O
readout name: pIC50

Examples with their reported pIC50 follow.
compound: CC(=O)N[C@@H]1C(=O)N(C)[C@@H](CCCNC(=N)N)C(=O)N[C@@H](CO)C(=O)N[C@@H](CC(=O)O)C(=O)N[C@@H](CC(C)C)C(=O)N[C@@H](CC(C)C)C(=O)N[C@H](C(=O)N[C@@H](Cc2ccc3ccccc3c2)C(=O)N[C@H](CCC(=O)O)C(N)=O)C(C)(C)SSC1(C)C [compound 159] (Ac-[Pen][NMeR]SDLL[Pen][2Nal][dE]-NH2; disulfide 1-7)
pIC50: 5.00 to 6.00

compound: CC(=O)N[C@@H]1C(=O)N(C)[C@@H](CCCNC(=N)N)C(=O)N[C@@H](CO)C(=O)N[C@@H](CC(=O)O)C(=O)N[C@@H]([C@@H](C)O)C(=O)N[C@@H](Cc2ccccc2)C(=O)N[C@H](C(=O)N[C@@H](Cc2ccc3ccccc3c2)C(=O)N[C@H](CCC(=O)O)C(N)=O)C(C)(C)SSC1(C)C [compound 162] (Ac-[Pen][NMeR]SDTF[Pen][2Nal][dE]-NH2; disulfide 1-7)
pIC50: 5.00 to 6.00

Now turn to the next compound.
Task item: Report pIC50 for CC(=O)N[C@@H]1C(=O)N(C)[C@@H](CCCNC(=N)N)C(=O)N[C@@H](CO)C(=O)N[C@@H](CC(=O)O)C(=O)N[C@@H]([C@@H](C)O)C(=O)N[C@@H](CCC(N)=O)C(=O)N[C@H](C(=O)N[C@@H](Cc2ccc3ccccc3c2)C(=O)N[C@H](CCC(=O)O)C(N)=O)C(C)(C)SSC1(C)C [compound 163] (Ac-[Pen][NMeR]SDTQ[Pen][2Nal][dE]-NH2; disulfide 1-7) please.
Reply: 5.00 to 6.00

* * *

# procedure details: Simulated Intestinal Fluid (SIF) Stability Assay
# Type: in vitro ADME, porcine
# applied conditions: pig, simulated intestinal fluid (SIF) with 1% porcine pancreatin, pH 6.5, Table 3-B; > means experiment was stopped at that time and half life was not reached; read-out: Stabilty SIF t1/2
Bridge positions count the residues as written; N and C are the ends. Square brackets hold non-standard residues; d marks the D form. Peptide text beside a SMILES is read from it. Phe(4-tBu) = CC(C)(C)c1ccc(C[C@H](N)C(=O)O)cc1; NMeR = CN[C@@H](CCCNC(=N)N)C(=O)O; Aic = NC1(C(=O)O)Cc2ccccc2C1; Pen = CC(C)(S)[C@H](N)C(=O)O
readout name: half-life at 22 μM (h)
Numbers only, in h.

molecule: CC(=O)N[C@@H]1C(=O)N(C)[C@@H](CCCNC(=N)N)C(=O)N[C@@H](CO)C(=O)N[C@@H](CC(=O)O)C(=O)N[C@@H]([C@@H](C)O)C(=O)N[C@@H](CC(C)C)C(=O)N[C@H](C(=O)N[C@@H](Cc2ccc(C(C)(C)C)cc2)C(=O)O)C(C)(C)SSC1(C)C [compound 151] (Ac-[Pen][NMeR]SDTL[Pen][Phe(4-tBu)]-OH; disulfide 1-7)
readout name: half-life at 22 μM
obs value: 3.12

Task item: Report half-life at 22 μM for CC(=O)N[C@@H]1C(=O)N(C)[C@@H](CCCNC(=N)N)C(=O)N[C@@H](CO)C(=O)N[C@@H](CC(=O)O)C(=O)N[C@@H]([C@@H](C)O)C(=O)N[C@@H](CC(C)C)C(=O)N[C@H](C(=O)N[C@@H](Cc2c[nH]c3ccccc23)C(=O)NC2(C(=O)N[C@H](CCCCN)C(N)=O)Cc3ccccc3C2)C(C)(C)SSC1(C)C [compound 51] (Ac-[Pen][NMeR]SDTL[Pen]W[Aic][dK]-NH2; disulfide 1-7) please.
Reply: 3

* * *

# system name: rh integrin α4β7 (Homo sapiens, UniProt P13612+P26010)
# Construct: purchased R&D Systems 5397-A30
# Sequence (P13612 34-977 limits assumed): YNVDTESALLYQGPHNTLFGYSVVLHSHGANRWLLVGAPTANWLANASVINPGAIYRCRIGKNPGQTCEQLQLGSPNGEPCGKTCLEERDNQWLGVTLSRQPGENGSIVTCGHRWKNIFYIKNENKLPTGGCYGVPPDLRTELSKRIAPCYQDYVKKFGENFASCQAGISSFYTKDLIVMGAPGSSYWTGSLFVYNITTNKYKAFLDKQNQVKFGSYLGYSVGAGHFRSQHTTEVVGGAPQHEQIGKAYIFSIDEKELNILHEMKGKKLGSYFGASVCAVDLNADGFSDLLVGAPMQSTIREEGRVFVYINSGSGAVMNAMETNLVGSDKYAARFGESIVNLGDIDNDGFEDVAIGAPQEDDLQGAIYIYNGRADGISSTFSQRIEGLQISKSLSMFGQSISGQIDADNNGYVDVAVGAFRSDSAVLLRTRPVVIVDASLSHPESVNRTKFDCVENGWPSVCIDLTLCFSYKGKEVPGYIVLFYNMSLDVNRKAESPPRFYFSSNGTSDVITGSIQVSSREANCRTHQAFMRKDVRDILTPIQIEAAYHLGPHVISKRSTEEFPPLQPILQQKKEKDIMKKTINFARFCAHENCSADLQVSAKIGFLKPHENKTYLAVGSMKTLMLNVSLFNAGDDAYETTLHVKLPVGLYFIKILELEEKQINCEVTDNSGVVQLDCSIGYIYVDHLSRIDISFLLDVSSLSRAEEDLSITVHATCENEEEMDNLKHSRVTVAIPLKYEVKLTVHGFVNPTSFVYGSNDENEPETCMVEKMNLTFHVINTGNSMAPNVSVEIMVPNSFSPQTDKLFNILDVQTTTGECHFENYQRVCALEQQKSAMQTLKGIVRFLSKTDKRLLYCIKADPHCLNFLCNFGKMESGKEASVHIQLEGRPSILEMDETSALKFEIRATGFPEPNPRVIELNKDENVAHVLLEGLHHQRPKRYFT
# Sequence (P26010 20-723 limits assumed): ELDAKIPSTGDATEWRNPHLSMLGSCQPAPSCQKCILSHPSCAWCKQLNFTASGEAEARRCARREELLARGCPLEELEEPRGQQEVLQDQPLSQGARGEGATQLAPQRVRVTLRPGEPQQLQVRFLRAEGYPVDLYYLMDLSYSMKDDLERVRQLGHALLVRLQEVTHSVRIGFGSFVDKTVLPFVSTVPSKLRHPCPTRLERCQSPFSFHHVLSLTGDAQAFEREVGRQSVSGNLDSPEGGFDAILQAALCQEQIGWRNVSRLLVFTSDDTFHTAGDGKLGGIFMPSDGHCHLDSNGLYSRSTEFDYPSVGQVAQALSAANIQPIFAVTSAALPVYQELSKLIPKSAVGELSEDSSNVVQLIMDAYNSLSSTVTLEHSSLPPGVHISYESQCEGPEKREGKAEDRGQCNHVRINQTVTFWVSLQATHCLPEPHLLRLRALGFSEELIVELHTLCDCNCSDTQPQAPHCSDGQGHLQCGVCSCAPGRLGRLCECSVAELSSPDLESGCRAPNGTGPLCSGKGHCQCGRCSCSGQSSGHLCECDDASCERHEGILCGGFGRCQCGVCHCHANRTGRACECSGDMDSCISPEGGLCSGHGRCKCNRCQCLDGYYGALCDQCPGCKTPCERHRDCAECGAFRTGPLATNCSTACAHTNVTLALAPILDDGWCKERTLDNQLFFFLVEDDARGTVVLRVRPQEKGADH
# procedure details: α4β7-MAdCAM Competition ELISA
# Assay type: binding
# applied conditions: Table 3-B, Potency (α4β7); range classes; read-out: α4β7 ELISA IC50
Bridge positions count the residues as written; N and C are the ends. Square brackets hold non-standard residues; d marks the D form. Peptide text beside a SMILES is read from it. Phe(3,4-Cl2) = N[C@@H](Cc1ccc(Cl)c(Cl)c1)C(=O)O; 1Nal = N[C@@H](Cc1cccc2ccccc12)C(=O)O; d1Nal = N[C@H](Cc1cccc2ccccc12)C(=O)O; NMeR = CN[C@@H](CCCNC(=N)N)C(=O)O; Aic = NC1(C(=O)O)Cc2ccccc2C1; Pen = CC(C)(S)[C@H](N)C(=O)O; dNMeK = CN[C@H](CCCCN)C(=O)O
readout name: IC50

molecule: CC(=O)N[C@@H]1C(=O)N(C)[C@@H](CCCNC(=N)N)C(=O)N[C@@H](CO)C(=O)N[C@@H](CC(=O)O)C(=O)N[C@@H]([C@@H](C)O)C(=O)N[C@@H](CC(C)C)C(=O)N[C@H](C(=O)N[C@@H](Cc2cccc3ccccc23)C(=O)N[C@H](CCC(=O)O)C(=O)N(C)[C@H](CCCCN)C(N)=O)C(C)(C)SSC1(C)C [compound 12] (Ac-[Pen][NMeR]SDTL[Pen][1Nal][dE][dNMeK]-NH2; disulfide 1-7)
obs value: 0.025 to 0.05 µM

molecule: CC(=O)N[C@@H]1C(=O)N(C)[C@@H](CCCNC(=N)N)C(=O)N[C@@H](CO)C(=O)N[C@@H](CC(=O)O)C(=O)N[C@@H]([C@@H](C)O)C(=O)N[C@@H](CC(C)C)C(=O)N[C@H](C(=O)N[C@H](Cc2cccc3ccccc23)C(=O)N[C@@H](CCC(=O)O)C(=O)N[C@H](CCCCN)C(N)=O)C(C)(C)SSC1(C)C [compound 10] (Ac-[Pen][NMeR]SDTL[Pen][d1Nal]E[dK]-NH2; disulfide 1-7)
obs value: 0.01 to 0.025 µM

molecule: CC(=O)N[C@@H]1C(=O)N(C)[C@@H](CCCNC(=N)N)C(=O)N[C@@H](CO)C(=O)N[C@@H](CC(=O)O)C(=O)N[C@@H]([C@@H](C)O)C(=O)N[C@@H](CC(C)C)C(=O)N[C@H](C(=O)N[C@@H](Cc2cccc3ccccc23)C(=O)N[C@H](CCC(=O)O)C(=O)N[C@H](CCCCN)C(N)=O)C(C)(C)SSC1(C)C [compound 8] (Ac-[Pen][NMeR]SDTL[Pen][1Nal][dE][dK]-NH2; disulfide 1-7)
obs value: 0.025 to 0.05 µM

molecule: CC(=O)N[C@@H]1C(=O)N(C)[C@@H](CCCNC(=N)N)C(=O)N[C@@H](CO)C(=O)N[C@@H](CC(=O)O)C(=O)N[C@@H]([C@@H](C)O)C(=O)N[C@@H](CC(C)C)C(=O)N[C@H](C(=O)N[C@@H](Cc2c[nH]c3ccccc23)C(=O)NC2(C(=O)N[C@H](CCCCN)C(N)=O)Cc3ccccc3C2)C(C)(C)SSC1(C)C [compound 51] (Ac-[Pen][NMeR]SDTL[Pen]W[Aic][dK]-NH2; disulfide 1-7)
obs value: 0.025 to 0.05 µM

Now turn to the next molecule.
Task item: Report IC50 for CC(=O)N[C@@H]1C(=O)N(C)[C@@H](CCCNC(=N)N)C(=O)N[C@@H](CO)C(=O)N[C@@H](CC(=O)O)C(=O)N[C@@H]([C@@H](C)O)C(=O)N[C@@H](CC(C)C)C(=O)N[C@H](C(=O)N[C@@H](Cc2ccc(Cl)c(Cl)c2)C(=O)N[C@@H](CCC(=O)O)C(=O)N[C@H](CCCCN)C(N)=O)C(C)(C)SSC1(C)C [compound 17] (Ac-[Pen][NMeR]SDTL[Pen][Phe(3,4-Cl2)]E[dK]-NH2; disulfide 1-7) please.
Reply: 0.01 to 0.025 µM

* * *

# procedure details: Simulated Intestinal Fluid (SIF) Stability Assay
# Assay type: in vitro ADME, porcine
# applied conditions: pig, simulated intestinal fluid (SIF) with 1% porcine pancreatin, pH 6.5, Table 4-C, t1/2; > means assay stopped at that time; read-out: SIF (porcine) Min
Bridge positions count the residues as written; N and C are the ends. Square brackets hold non-standard residues; d marks the D form. Peptide text beside a SMILES is read from it. NMeR = CN[C@@H](CCCNC(=N)N)C(=O)O; Pen = CC(C)(S)[C@H](N)C(=O)O
Provide the reported half-life at 22 μM of each item.

Examples with their reported half-life at 22 μM follow.
molecule: CC(=O)N[C@H]1CSSC[C@@H](C(=O)NCC(=O)N[C@@H](CCC(=O)O)C(=O)N[C@@H](CCCCN)C(N)=O)NC(=O)[C@H](CC(C)C)NC(=O)[C@H]([C@@H](C)O)NC(=O)[C@H](CC(=O)O)NC(=O)[C@H](CO)NC(=O)[C@H](CCCNC(=N)N)NC1=O [compound 196, Ac-C-R-S-D-T-L-C-G-E-K-NH2] (Ac-CRSDTLCGEK-NH2; disulfide 1-7)
half-life at 22 μM: < 0.0667 h

molecule: CC(=O)N[C@@H]1C(=O)N(C)[C@@H](CCCNC(=N)N)C(=O)N[C@@H](CO)C(=O)N[C@@H](CC(=O)O)C(=O)N[C@@H]([C@@H](C)O)C(=O)N[C@@H](CC(C)C)C(=O)N[C@H](C(=O)N[C@@H](Cc2c[nH]c3ccccc23)C(=O)N[C@H](CCCCN)C(N)=O)C(C)(C)SSC1(C)C [compound 208, Ac-Pen-N-Me-R-S-D-T-L-Pen-W-k-NH2] (Ac-[Pen][NMeR]SDTL[Pen]W[dK]-NH2; disulfide 1-7)
half-life at 22 μM: > 6 h

Task item: Report half-life at 22 μM for CC(=O)N[C@H]1CSSC(C)(C)[C@@H](C(=O)N[C@H](CCCCN)C(N)=O)NC(=O)[C@H](CC(C)C)NC(=O)[C@H]([C@@H](C)O)NC(=O)[C@H](CC(=O)O)NC(=O)[C@H](CO)NC(=O)[C@H](CCCNC(=N)N)N(C)C1=O [compound 202, Ac-C-N-Me-R-S-D-T-L-Pen-k-NH2] (Ac-C[NMeR]SDTL[Pen][dK]-NH2; disulfide 1-7) please.
Reply: > 6 h
